Molecular target: human recombinant FGFR1 (Homo sapiens, UniProt P11362)
Sequence (P11362 22-822): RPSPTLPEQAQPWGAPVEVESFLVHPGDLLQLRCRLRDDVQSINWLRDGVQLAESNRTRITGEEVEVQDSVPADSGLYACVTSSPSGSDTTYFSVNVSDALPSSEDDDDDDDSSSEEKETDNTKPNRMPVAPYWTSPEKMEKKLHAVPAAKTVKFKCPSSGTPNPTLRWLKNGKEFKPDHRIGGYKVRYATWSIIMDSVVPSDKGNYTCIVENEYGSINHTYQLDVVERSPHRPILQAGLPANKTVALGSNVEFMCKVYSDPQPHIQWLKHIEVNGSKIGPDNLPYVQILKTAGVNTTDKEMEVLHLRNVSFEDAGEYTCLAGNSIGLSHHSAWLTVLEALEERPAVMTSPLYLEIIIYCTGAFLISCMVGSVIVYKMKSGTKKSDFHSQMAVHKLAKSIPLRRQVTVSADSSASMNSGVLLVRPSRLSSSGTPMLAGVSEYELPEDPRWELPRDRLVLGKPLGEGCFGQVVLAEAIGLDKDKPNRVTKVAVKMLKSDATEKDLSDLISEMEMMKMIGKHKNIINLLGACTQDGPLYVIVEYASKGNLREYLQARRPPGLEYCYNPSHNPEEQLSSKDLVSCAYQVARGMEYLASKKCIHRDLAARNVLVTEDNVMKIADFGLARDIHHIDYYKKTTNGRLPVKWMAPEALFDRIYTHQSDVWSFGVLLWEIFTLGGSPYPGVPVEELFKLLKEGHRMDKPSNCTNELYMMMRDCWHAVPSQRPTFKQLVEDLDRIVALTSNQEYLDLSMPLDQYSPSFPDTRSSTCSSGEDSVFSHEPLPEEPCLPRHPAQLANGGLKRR
Experiment: FGFR family enzymatic activity assay (Caliper-based kinase assay), FGFR1
Conditions: FGFR1 0.5 nM, ATP 100 μM, peptide substrate 1 μM, room temperature 3 h
Reported log10 IC50 values are given for each entry in this list.
MEASURE: log10 IC50 (log10 of the value in nM)

compound="C=CC(=O)Nc1ccc(CCn2c(=O)c(-c3c(Cl)c(OC)cc(OC)c3Cl)cc3cnc(NC(CC)(CO)CO)nc32)cc1 [Example 92]" measure="log10 IC50" test_value=0.04
compound="C=CC(=O)Nc1ccc(CCn2c(=O)c(-c3c(Cl)c(OC)cc(OC)c3Cl)cc3cnc(NCCN4CCOCC4)nc32)nc1 [Example 51]" measure="log10 IC50" test_value=0.26
compound="C=CS(=O)(=O)Nc1ccc(CCn2c(=O)c(-c3cc(OC)cc(OC)c3Cl)cc3cnc(NC)nc32)cc1 [Example 20]" measure="log10 IC50" test_value=0.53
compound="C=CC(=O)Nc1cccc(CCn2c(=O)c(-c3cc(OC)cc(OC)c3Cl)cc3cnc(NCCN4CCOCC4)nc32)c1 [Example 35]" measure="log10 IC50" test_value=0.78
compound="C=CC(=O)Nc1ccc(CCn2c(=O)c(-c3cc(OC)cc(OC)c3F)cc3cnc(NCCN4CCOCC4)nc32)cc1F [Example 53]" measure="log10 IC50" test_value=1.46
compound="C=CC(=O)Nc1ccc(CCn2c(=O)c(-c3cc(OC)cc(OC)c3Cl)cc3cnc(NCCN4CCC(F)(F)CC4)nc32)cc1 [Example 111]" measure="log10 IC50" test_value=0.53
compound="C#CCNc1ncc2cc(-c3cc(OC)cc(OC)c3Cl)c(=O)n(CCc3ccc(NC(=O)C=C)cn3)c2n1 [Example 59]" measure="log10 IC50" test_value=-0.30

====

Molecular target: human recombinant FGFR4 (Homo sapiens, UniProt P22455)
Sequence (P22455 22-802): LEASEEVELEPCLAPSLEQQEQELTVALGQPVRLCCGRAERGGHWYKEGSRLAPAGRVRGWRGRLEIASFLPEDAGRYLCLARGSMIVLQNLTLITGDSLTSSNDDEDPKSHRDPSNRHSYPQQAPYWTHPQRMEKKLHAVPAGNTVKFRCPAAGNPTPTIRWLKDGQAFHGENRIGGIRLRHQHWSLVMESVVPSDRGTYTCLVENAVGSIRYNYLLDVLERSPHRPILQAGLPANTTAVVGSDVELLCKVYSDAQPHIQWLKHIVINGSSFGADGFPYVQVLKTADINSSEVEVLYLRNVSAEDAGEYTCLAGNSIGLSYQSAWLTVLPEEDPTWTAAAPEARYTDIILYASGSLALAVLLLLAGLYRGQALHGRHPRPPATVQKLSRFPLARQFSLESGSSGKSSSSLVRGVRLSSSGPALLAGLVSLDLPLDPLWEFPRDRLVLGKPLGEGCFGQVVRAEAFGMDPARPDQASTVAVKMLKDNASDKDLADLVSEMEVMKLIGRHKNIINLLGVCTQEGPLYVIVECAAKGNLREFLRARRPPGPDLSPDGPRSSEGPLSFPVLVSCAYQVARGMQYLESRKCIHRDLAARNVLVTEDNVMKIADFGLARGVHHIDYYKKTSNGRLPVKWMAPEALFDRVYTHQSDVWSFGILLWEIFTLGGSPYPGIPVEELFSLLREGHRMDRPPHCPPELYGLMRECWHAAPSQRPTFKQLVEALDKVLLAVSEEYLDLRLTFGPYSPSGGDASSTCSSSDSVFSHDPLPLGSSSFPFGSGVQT
Assay: FGFR family enzymatic activity assay (Caliper-based kinase assay), FGFR4
Settings: FGFR4 2 nM, ATP 250 μM, peptide substrate 1 μM, room temperature 3 h
pIC50: −log10 of the molar value.
MEASURE: pIC50

compound="C=CC(=O)Nc1ccc(CCn2c(=O)c(-c3c(Cl)c(OC)cc(OC)c3Cl)cc3cnc(NC)nc32)cc1 [Example 4]" measure=pIC50 test_value=7.98
compound="C=CC(=O)Nc1ccc(CCn2c(=O)c(-c3cc(OC)cc(OC)c3Cl)cc3cnc(NCCN4CCN(CC(C)(C)O)CC4)nc32)cc1 [Example 68]" measure=pIC50 test_value=7.27
compound="C=CC(=O)Nc1ccc(CCn2c(=O)c(-c3cc(OC)cc(OC)c3Cl)cc3cnc(NC(C)(C)CO)nc32)cc1 [Example 61]" measure=pIC50 test_value=7.19
compound="C=CC(=O)Nc1ccc(CCn2c(=O)c(-c3c(Cl)c(OC)cc(OC)c3Cl)cc3cnc(NCC4CCN(C)CC4)nc32)cc1 [Example 75]" measure=pIC50 test_value=7.83
compound="C=CC(=O)Nc1ccc(CCn2c(=O)c(-c3c(Cl)c(OC)cc(OC)c3Cl)cc3cnc(NC(CO)CO)nc32)cc1 [Example 76]" measure=pIC50 test_value=8.02
compound="C=CC(=O)Nc1ccc(CCn2c(=O)c(-c3c(Cl)c(OC)cc(OC)c3Cl)cc3cnc(NCC(O)CO)nc32)cc1 (stereo not shown) [Example 63]" measure=pIC50 test_value=8.01
compound="C=CC(=O)Nc1ccc(CCn2c(=O)c(-c3cc(OC)cc(OC)c3F)cc3cnc(NCCN4CCOCC4)nc32)cc1 [Example 43]" measure=pIC50 test_value=7.15

====

Molecular target: human recombinant FGFR3 (Homo sapiens)
Sequence (P22607 23-806): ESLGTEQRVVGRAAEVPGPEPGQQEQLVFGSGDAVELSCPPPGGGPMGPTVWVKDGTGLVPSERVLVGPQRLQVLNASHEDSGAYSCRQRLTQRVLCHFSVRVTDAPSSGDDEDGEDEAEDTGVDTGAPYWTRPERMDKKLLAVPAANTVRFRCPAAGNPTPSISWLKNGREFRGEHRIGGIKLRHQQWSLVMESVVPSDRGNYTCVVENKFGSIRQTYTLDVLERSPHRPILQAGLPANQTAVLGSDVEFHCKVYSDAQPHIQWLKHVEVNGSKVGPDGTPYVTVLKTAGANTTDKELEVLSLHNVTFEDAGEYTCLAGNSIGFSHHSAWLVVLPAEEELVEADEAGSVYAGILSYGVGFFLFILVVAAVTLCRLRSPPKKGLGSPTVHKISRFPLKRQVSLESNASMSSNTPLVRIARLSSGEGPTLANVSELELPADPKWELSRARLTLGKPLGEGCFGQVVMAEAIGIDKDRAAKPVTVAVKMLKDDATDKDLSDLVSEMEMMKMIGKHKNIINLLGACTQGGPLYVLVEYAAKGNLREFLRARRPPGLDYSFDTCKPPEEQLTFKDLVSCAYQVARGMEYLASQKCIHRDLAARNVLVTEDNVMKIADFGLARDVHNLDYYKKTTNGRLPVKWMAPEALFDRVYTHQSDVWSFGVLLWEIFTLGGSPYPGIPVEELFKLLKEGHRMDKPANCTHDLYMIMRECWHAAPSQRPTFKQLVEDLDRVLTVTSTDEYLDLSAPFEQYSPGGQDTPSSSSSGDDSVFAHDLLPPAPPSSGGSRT
Assay: FGFR family enzymatic activity assay (Caliper-based kinase assay), FGFR3
Conditions: FGFR3 0.9 nM, ATP 120 μM, peptide substrate 1 μM, room temperature 3 h
Reported IC50 values are given for each entry in this list.
MEASURE: IC50 (nM)

molecule="C=CC(=O)Nc1ccc(CCn2c(=O)c(-c3cc(OC)cc(OC)c3Cl)cc3cnc(NC(C)(C)CO)nc32)cc1 [Example 61]" test_value=9.2
molecule="C=CC(=O)Nc1ccc(CCn2c(=O)c(-c3c(Cl)c(OC)cc(OC)c3Cl)cc3cnc(NCCN4CCOCC4)nc32)nc1 [Example 51]" test_value=5.4
molecule="C=CC(=O)N1CCCC(CCn2c(=O)c(-c3ccccc3Cl)cc3cnc(NCCCCN(CC)CC)nc32)C1 (stereo not shown) [Example 2]" test_value=1040
molecule="C=CC(=O)Nc1ccc(CCn2c(=O)c(-c3c(Cl)c(OC)cc(OC)c3Cl)cc3cnc(NCC(C)(C)O)nc32)cc1 [Example 64]" test_value=5.5

====

Target: human recombinant FGFR1 (Homo sapiens, UniProt P11362)
Assay: FGFR family enzymatic activity assay (Caliper-based kinase assay), FGFR1
Format: biochemical
Conditions: FGFR1 0.5 nM, ATP 100 μM, peptide substrate 1 μM, room temperature 3 h
Counter-ions that a name gives are not always drawn.
Reported IC50 values are given for each entry in this list.
MEASURE: IC50 (nM)

molecule=C=CC(=O)Nc1ccc(CCn2c(=O)c(-c3c(Cl)c(OC)cc(OC)c3Cl)cc3cnc(NCC(C)(C)O)nc32)cc1 unit_of_measurement=nM test_value=0.5
molecule=C=CC(=O)Nc1cccc(Cn2c(=O)c(-c3cc(OC)cc(OC)c3Cl)cc3cnc(NCCN4CCOCC4)nc32)c1 unit_of_measurement=nM test_value=1
molecule=C=CC(=O)Nc1ccc(CCn2c(=O)c(-c3cc(OC)cc(OC)c3Cl)cc3cnc(NCC(C)(C)CO)nc32)cc1 unit_of_measurement=nM test_value=0.6
molecule=C=CC(=O)Nc1ccc(CCn2c(=O)c(-c3cc(OC)cc(OC)c3Cl)cc3cnc(NCC4CCN(C)CC4)nc32)cc1 unit_of_measurement=nM test_value=1
molecule=C=CC(=O)Nc1ccc(CCn2c(=O)c(-c3cc(OC)cc(OC)c3Cl)cc3cnc(NCCCCN(CC)CC)nc32)cn1 unit_of_measurement=nM test_value=1.2
molecule=C=CC(=O)Nc1ccc(CCn2c(=O)c(-c3c(Cl)c(OC)cc(OC)c3Cl)cc3cnc(NN4CCN(C)CC4)nc32)cc1 unit_of_measurement=nM test_value=1.2
molecule=C=CC(=O)Nc1ccc(CCn2c(=O)c(-c3cc(OC)cc(OC)c3Cl)cc3cnc(NCCO)nc32)nc1 unit_of_measurement=nM test_value=0.8
molecule=C=CC(=O)Nc1ccc(CCn2c(=O)c(-c3cc(OC)cc(OC)c3Cl)cc3cnc(NCC4(O)CCN(C)CC4)nc32)cc1 unit_of_measurement=nM test_value=9.8
molecule=C=CC(=O)Nc1ccc(CCn2c(=O)c(-c3cc(OC)cc(OC)c3Cl)cc3cnc(NCCN4CCOCC4)nc32)cc1Cl unit_of_measurement=nM test_value=3.7
molecule=C=CC(=O)Nc1ccc(CCn2c(=O)c(-c3cc(OC)cc(OC)c3Cl)cc3cnc(NCC(C)(C)O)nc32)nc1 unit_of_measurement=nM test_value=1.6
molecule=C=CC(=O)Nc1ccc(CCn2c(=O)c(-c3c(Cl)c(OC)cc(OC)c3Cl)cc3cnc(NCCO)nc32)cc1 unit_of_measurement=nM test_value=0.6
molecule="C=CC(=O)Nc1ccc(CCn2c(=O)c(-c3c(Cl)c(OC)cc(OC)c3Cl)cc3cnc(NCCCCN(CC)CC)nc32)cc1 [Example 5, hydrochloride]" unit_of_measurement=nM test_value=1.1
molecule=C=CC(=O)Nc1ccc(CCn2c(=O)c(-c3c(Cl)cccc3Cl)cc3cnc(NC)nc32)cc1 unit_of_measurement=nM test_value=29.6
molecule=C=CC(=O)Nc1cnc(CCn2c(=O)c(-c3cc(OC)cc(OC)c3Cl)cc3cnc(NCCN4CCOCC4)nc32)cn1 unit_of_measurement=nM test_value=3
molecule=C=CC(=O)Nc1ccc(CCn2c(=O)c(-c3cc(OC)cc(OC)c3Cl)cc3cnc(N)nc32)cc1 unit_of_measurement=nM test_value=0.9
molecule=C=CC(=O)Nc1ccc(CCn2c(=O)c(-c3cc(OC)cc(OC)c3Cl)cc3cnc(NCCN4C[C@@H](C)O[C@@H](C)C4)nc32)cc1 unit_of_measurement=nM test_value=1.3
molecule=C=CC(=O)Nc1ccc(CCn2c(=O)c(-c3cc(OC)cc(OC)c3Cl)cc3cnc(NCCN4CCN(C(C)C)CC4)nc32)cc1 unit_of_measurement=nM test_value=0.4
molecule=CNc1ncc2cc(-c3cc(OC)cc(OC)c3Cl)c(=O)n(CCc3ccc(NS(=O)(=O)C=C(C)C)cc3)c2n1 unit_of_measurement=nM test_value=4
molecule=C=CC(=O)Nc1ccc(CCn2c(=O)c(-c3cc(OC)cc(OC)c3Cl)cc3cnc(NCCn4ccnc4)nc32)cc1 unit_of_measurement=nM test_value=7.4
molecule=C=CC(=O)Nc1ccc(CCn2c(=O)c(-c3cc(OC)cc(OC)c3Cl)cc3cnc(NCCN(CC)CC)nc32)cn1 unit_of_measurement=nM test_value=49.3
molecule=C=CC(=O)Nc1ccc(CCn2c(=O)c(-c3c(Cl)c(OC)cc(OC)c3Cl)cc3cnc(NC4CCOCC4)nc32)nc1 unit_of_measurement=nM test_value=0.3
molecule=C=CC(=O)Nc1ccc(CCn2c(=O)c(-c3c(Cl)c(OC)cc(OC)c3Cl)cc3cnc(NCC4CC4)nc32)cc1 unit_of_measurement=nM test_value=1.8
molecule=C=CC(=O)Nc1ccc(CCn2c(=O)c(-c3cc(OC)cc(OC)c3Cl)cc3cnc(NCCN4CCN(CC(C)(C)O)CC4)nc32)cc1 unit_of_measurement=nM test_value=0.7
molecule=C=CC(=O)Nc1cccc(CCn2c(=O)c(-c3cc(OC)cc(OC)c3F)cc3cnc(NCCCCN(CC)CC)nc32)c1 unit_of_measurement=nM test_value=1.8
molecule=C=CC(=O)Nc1ccc(CCn2c(=O)c(-c3cc(OC)cc(OC)c3Cl)cc3cnc(NCCCN(CC)CC)nc32)cc1 unit_of_measurement=nM test_value=2.4
molecule=C=CC(=O)Nc1ccc(CCn2c(=O)c(-c3cc(OC)cc(OC)c3Cl)cc3cnc(NCCN4CCS(=O)(=O)CC4)nc32)cc1 unit_of_measurement=nM test_value=2.2
molecule=C=CC(=O)Nc1ccc(CCn2c(=O)c(-c3c(Cl)c(OC)cc(OC)c3Cl)cc3cnc(NCC(C)(C)CO)nc32)nc1 unit_of_measurement=nM test_value=1.5
